Below, each of the binders is paired with its reported IC50 (µg/mL), pseudovirus neutralization value.
# test-target: HIV-1 Env of isolate MGRM-A-006 (HIV-1)
# assay: cell-based or functional assay
measured-metric: IC50 (µg/mL), pseudovirus neutralization

1) PGT-123 (antibody, V domains shown) VH: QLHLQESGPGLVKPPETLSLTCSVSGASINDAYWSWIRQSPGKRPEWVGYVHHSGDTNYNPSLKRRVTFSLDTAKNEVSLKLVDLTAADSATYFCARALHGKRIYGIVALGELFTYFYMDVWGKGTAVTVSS VL: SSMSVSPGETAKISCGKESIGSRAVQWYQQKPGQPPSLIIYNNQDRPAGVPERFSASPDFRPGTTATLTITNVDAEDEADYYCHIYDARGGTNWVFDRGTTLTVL; > 50 µg/mL
2) PGT-126 (antibody, V domains shown) VH: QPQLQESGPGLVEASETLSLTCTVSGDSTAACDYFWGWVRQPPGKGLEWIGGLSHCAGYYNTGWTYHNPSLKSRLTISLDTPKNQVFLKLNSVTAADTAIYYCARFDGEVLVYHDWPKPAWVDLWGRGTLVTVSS VL: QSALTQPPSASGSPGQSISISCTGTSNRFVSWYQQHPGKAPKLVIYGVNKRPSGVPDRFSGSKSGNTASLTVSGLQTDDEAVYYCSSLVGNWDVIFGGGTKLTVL; > 50 µg/mL
3) PGT-125 (antibody, V domains shown) VH: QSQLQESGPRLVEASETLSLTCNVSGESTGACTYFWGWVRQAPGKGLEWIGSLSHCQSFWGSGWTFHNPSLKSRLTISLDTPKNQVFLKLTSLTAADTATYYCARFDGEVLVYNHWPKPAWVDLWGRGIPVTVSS VL: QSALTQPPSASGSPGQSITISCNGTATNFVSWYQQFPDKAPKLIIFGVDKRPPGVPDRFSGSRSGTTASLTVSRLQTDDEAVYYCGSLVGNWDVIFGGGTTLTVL; > 50 µg/mL
4) PGT-127 (antibody, V domains shown) VH: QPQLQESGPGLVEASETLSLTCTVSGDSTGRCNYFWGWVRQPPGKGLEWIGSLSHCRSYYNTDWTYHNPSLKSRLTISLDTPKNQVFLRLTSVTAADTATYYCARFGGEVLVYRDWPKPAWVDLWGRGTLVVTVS VL: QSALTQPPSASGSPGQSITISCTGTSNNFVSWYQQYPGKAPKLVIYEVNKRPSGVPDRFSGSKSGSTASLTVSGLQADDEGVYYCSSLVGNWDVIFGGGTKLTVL; > 50 µg/mL

The measurements presented in this section are drawn from patent US20200024330A1.
